# experimental.system: T1, human soluble urokinase plasminogen activator receptor (suPAR) (human, UniProt Q03405 23-303, limits assumed)
# T1 construct: Target antigen of the scFv off-rate screen; also called hsuPAR; human suPAR
# T1 sequence (Q03405 23-303 limits assumed): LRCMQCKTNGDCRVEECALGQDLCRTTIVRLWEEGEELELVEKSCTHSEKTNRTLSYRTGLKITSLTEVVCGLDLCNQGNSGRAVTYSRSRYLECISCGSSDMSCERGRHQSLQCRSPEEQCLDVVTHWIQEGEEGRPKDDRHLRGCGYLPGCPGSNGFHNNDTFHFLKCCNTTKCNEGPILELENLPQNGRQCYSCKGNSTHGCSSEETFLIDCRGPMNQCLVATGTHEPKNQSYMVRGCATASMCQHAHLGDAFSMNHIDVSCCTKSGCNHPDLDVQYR
# procedure.details: BLI (Octet) off-rate screen of scFv clones
measured.parameter: koff (s⁻¹)
Answers are plain numbers, in s⁻¹.

Answered examples (2):
suPAR_DB06_E12 (scFv, V domains shown) VH: QVQLVQSGAEVKKPGASVKVSCKASGYTFTSYYMHWVRQAPGQGLEWMGWIDHENGNTSYAQKFQGRVTMTRDTSTSTVYMELSSLRSEDTAVYYCARGYDVDWFVYWGQGTLVTVSS VL: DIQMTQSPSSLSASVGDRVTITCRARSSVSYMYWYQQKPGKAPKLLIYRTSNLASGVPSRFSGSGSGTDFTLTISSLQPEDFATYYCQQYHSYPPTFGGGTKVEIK: 0.00373
suPAR_DB06_D11 (scFv, V domains shown) VH: QVQLVQSGAEVKKPGASVKVSCKASGYTFANYYVHWVRQAPGQGLEWVGMIDPGGGTTNYAQKFQGRVTMTRDTSTSTVYMELSSLRSEDTAVYYCARGYDVDWFVYWGQGTLVTVSS VL: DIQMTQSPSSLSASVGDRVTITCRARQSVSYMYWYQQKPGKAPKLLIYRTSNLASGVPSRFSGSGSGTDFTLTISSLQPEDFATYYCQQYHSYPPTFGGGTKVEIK: 0.0021

Hi! Can you tell me koff for each of these binders?
1. suPAR_DB06_F01 (scFv, V domains shown) VH: QVQLVQSGAEVKKPGASVKVSCKASGGTFTSYYVHWVRQAPGQGLEWMGWIDPEGGNTSYDQKFQGRVTMTRDTSTSTVYMELSSLRSEDTAVYYCARGYDVDWFVYWGQGTLVTVSS VL: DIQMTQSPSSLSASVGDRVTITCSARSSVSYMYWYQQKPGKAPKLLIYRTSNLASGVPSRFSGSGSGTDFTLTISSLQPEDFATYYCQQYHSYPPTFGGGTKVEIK
2. suPAR_DB06_E03 (scFv, V domains shown) VH: QVQLVQSGAEVKKPGASVKVSCKASGFNIKDYYIHWVRQAPGQGLEWMGWIDPENGNTSYDQKFQGRVTMTRDTSTSTVYMELSSLRSEDTAVYYCARGYDVDWFVYWGQGTLVTVSS VL: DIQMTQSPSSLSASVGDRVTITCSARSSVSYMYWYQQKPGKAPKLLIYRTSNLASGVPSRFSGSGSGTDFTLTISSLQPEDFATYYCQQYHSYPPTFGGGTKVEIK

stdout:
0.00305
0.00201

stdin: Note down koff recorded for suPAR_DB06_B10 (scFv, V domains shown) VH: QVQLVQSGAEVKKPGASVKVSCKASGDTLTNYYMHWVRQAPGQGLEWMGWIDHENGSTIYAQKFQGRVTMTRDTSTSTVYMELSSLRSEDTAVYYCARGYDVDWFVYWGQGTLVTVSS VL: DIQMTQSPSSLSASVGDRVTITCSARSSVSYMYWYQQKPGKAPKLLIYRTSNLQTGVPSRFSGSGSGTDFTLTISSLQPEDFATYYCQQYHSYPPTFGGGTKVEIK
stdout: 0.00141
